Listed molecules paired with reported responders at 26 µmol/kg
Test system: caudate lesioned mouse
Test: caudate lesioned mouse test (anti-parkinson activity)
Type: in vivo
Settings: Mus musculus; dose 0.026 m. mole/kg; 2 h post-drug; read-out: No. Mice Affected/No. Mice Tested, 2 h (converted)
Counter-ions that a name gives are not always drawn.
Numbers only here, please. The scale is %.

Worked cases, responders at 26 µmol/kg given:
{"molecule": "CCCN1CCc2cccc3c2C1Cc1ccc(OC(=O)c2cc(OC)c(OC)c(OC)c2)c(OC(=O)c2cc(OC)c(OC)c(OC)c2)c1-3 (centres unmarked) [Ex. 1L, hydrochloride]", "observed-property": "responders at 26 µmol/kg", "endpoint-result": 100}
{"molecule": "CCCN1CCc2cccc3c2C1Cc1ccc(OC(=O)c2cc(OC)cc(OC)c2)c(OC(=O)c2cc(OC)cc(OC)c2)c1-3 (centres unmarked) [Ex. 1K, hydrochloride]", "observed-property": "responders at 26 µmol/kg", "endpoint-result": 50}
{"molecule": "CCCC(=O)Oc1ccc2c(c1OC(=O)CCC)-c1cccc3c1C(C2)N(CCC)CC3 (centres unmarked) [Ex. 1A, N-Propylnorapomorphine dibutanoate]", "observed-property": "responders at 26 µmol/kg", "endpoint-result": 0}
{"molecule": "CCCN1CCc2cccc3c2C1Cc1ccc(OC(=O)c2ccccc2C)c(OC(=O)c2ccccc2C)c1-3 (centres unmarked)", "observed-property": "responders at 26 µmol/kg", "endpoint-result": 50}
{"molecule": "CCCN1CCc2cccc3c2C1Cc1ccc(OC(=O)C2CC2)c(OC(=O)C2CC2)c1-3 (centres unmarked)", "observed-property": "responders at 26 µmol/kg", "endpoint-result": 75}
{"molecule": "CCCN1CCc2cccc3c2C1Cc1ccc(OC(=O)c2ccc(C)cc2)c(OC(=O)c2ccc(C)cc2)c1-3 (centres unmarked)", "observed-property": "responders at 26 µmol/kg", "endpoint-result": 0}
{"molecule": "CCCCC(=O)Oc1ccc2c(c1OC(=O)CCCC)-c1cccc3c1C(C2)N(CCC)CC3 (centres unmarked) [Ex. 2A, hydrochloride]", "observed-property": "responders at 26 µmol/kg", "endpoint-result": 0}

Which responders at 26 µmol/kg reading was recorded for the molecule CCCN1CCc2cccc3c2C1Cc1ccc(OC(=O)c2ccc(OC)cc2)c(OC(=O)c2ccc(OC)cc2)c1-3 (centres unmarked) ?
75

###

Listed compounds paired with reported responders at 26 µmol/kg
Test system: caudate lesioned mouse
Assay: caudate lesioned mouse test (anti-parkinson activity)
Type: in vivo
Conditions: Mus musculus; dose 0.026 m. mole/kg; total; read-out: No. Mice Affected/No. Mice Tested, Total (converted)
State the result as a value with its unit after it.

Worked cases, responders at 26 µmol/kg given:
{"compound": "CCCN1CCc2cccc3c2C1Cc1ccc(OC(=O)c2ccc(OC)cc2)c(OC(=O)c2ccc(OC)cc2)c1-3 (stereo not shown)", "responders at 26 µmol/kg": "100%"}
{"compound": "CCCN1CCc2cccc3c2C1Cc1ccc(OC(=O)C(C)(C)C)c(OC(=O)C(C)(C)C)c1-3 (stereo not shown) [Ex. 1C, N-Propylnorapomorphine dipivaloate]", "responders at 26 µmol/kg": "100%"}
{"compound": "CCCC(=O)Oc1ccc2c(c1OC(=O)CCC)-c1cccc3c1C(C2)N(CCC)CC3 (stereo not shown) [Ex. 1A, N-Propylnorapomorphine dibutanoate]", "responders at 26 µmol/kg": "0%"}

Lab note: next compound to report on.
Which responders at 26 µmol/kg reading was recorded for the compound CCCN1CCc2cccc3c2C1Cc1ccc(OC(=O)C2CC2)c(OC(=O)C2CC2)c1-3 (stereo not shown) ?
100%
